The measured values listed here are drawn from the supplement of paper PMC11417369.

Test system: PfAP2-I AP2 domain 3 (GST-tagged)
Experiment: gcPBM binding intensity (ln(normalized median fluorescence intensity)); higher = stronger DNA binding
Whole data set: some 25,000 sequences, median “ln(normalized median fluorescence intensity)” near 7.9, cut for the highest 2% near 11. Shown is part of a subset that was picked to be rich in the highest values.

sequence content	gcPBM binding intensity (ln)
TATATATGTGTATAGAGTACACGTTTTTTTTAATAT [XGTACX_site3128]	7.71
AAAAAAAAAAGACACACACACACATACACATACATA [CACACA_site7362]	7.96
AGAGGAAAAATAAAAGGAAAAAAGAAAATAATATTG [CACACA_negctrl_site852]	7.45
GTACATTATATATATACACACATACATAATAAAGAA [CACACA_site5528]	8.12
TTTTTTTTCATTTTATGTACACATAATTTAATATAT [XGTACX_site5768]	8.16
ATAAGAATATATAGAGTGCGTTGAAGAATTATAATA	9.89
GTTTTATAAAAAGGCGCACACATATACATAAATATA [CACACA_site1864]	8.47
AATTTGTAAAATAAGGTGCGTATAAAAAATTATATT [GTGCAC_site9676]	9.71
CTTGAAAAAATAAAAACACACAATGTGTTTTTGAAT [CACACA_site3283]	7.42

====

Test system: PfAP2-I AP2 domain 3 (GST-tagged)
Assay: gcPBM binding intensity (ln(normalized median fluorescence intensity)); higher = stronger DNA binding
Over roughly 25,000 sequences, “ln(normalized median fluorescence intensity)” has its median near 7.9; the highest 2% begin near 11. This is one part of a sample in which the highest values are shown more often than they occur.
Answer n if gcPBM binding intensity (ln) is under 8, and y if it is 8 or more.

sequence content	measured target	category label
GGTATTTATGGACGCGTGCACACACATATGAACAAA	PfAP2-I AP2 domain 3 (GST-tagged)	y
TTATATCAAGGGAATGCATGCATATCGTTTTGTATT [TGCATGCA_site327]	PfAP2-I AP2 domain 3 (GST-tagged)	n
AATGTCCTTATTTGCACACACACATATAAGAAATTT [CACACA_site3186]	PfAP2-I AP2 domain 3 (GST-tagged)	y
AAAGGGATGTTCATTCTTTTTTTTTTTTTTGTATAT [CACACA_negctrl_site511]	PfAP2-I AP2 domain 3 (GST-tagged)	n
TTATAATATGGATACACACACATATATAAATATATA [CACACA_site5314]	PfAP2-I AP2 domain 3 (GST-tagged)	n
ATATAAATACGGTGTGCACACACATAATATATATAT [CACACA_site2271]	PfAP2-I AP2 domain 3 (GST-tagged)	y
AAAAATATAATATATGCACACATACATACATATATA [CACACA_site7915]	PfAP2-I AP2 domain 3 (GST-tagged)	y
TGTTAAAATTATTTGGTGCACTTGTTTTACCTTATT	PfAP2-I AP2 domain 3 (GST-tagged)	y
TATAAATTTATACCAGTGCATTTTGAAATATATATA	PfAP2-I AP2 domain 3 (GST-tagged)	y
ATGTCTATAATAAGAACACACATATATTTAATTTAA [CACACA_site7394]	PfAP2-I AP2 domain 3 (GST-tagged)	n
TAATTAAAAAATAAAAAAAAAAAAAATTAAAACAAA [CACACA_negctrl_site500]	PfAP2-I AP2 domain 3 (GST-tagged)	n
ATGGATTATACGTGCACACATATATACCAATAAATA [CACACA_site4524]	PfAP2-I AP2 domain 3 (GST-tagged)	y
CATAAAAATGGATACACACACATAATATATATATAT [CACACA_site3619]	PfAP2-I AP2 domain 3 (GST-tagged)	y
GCTAAAAGTATATGCACACACATATAGATGCACATA [CACACA_site6868]	PfAP2-I AP2 domain 3 (GST-tagged)	y
TATATTTATGTATATGTGCACATAAATTTAAGAATG [GTGCAC_site9512]	PfAP2-I AP2 domain 3 (GST-tagged)	y
TTTTGTTATTTTTCAGTGCAATATGATAATAATATA	PfAP2-I AP2 domain 3 (GST-tagged)	y
AATATAATATAATGCACACATAAAAAAAAAAAAATC [CACACA_site1303]	PfAP2-I AP2 domain 3 (GST-tagged)	y
ACAAAATTTACAAAATGTACAAAATTTACAAAGTAT [XGTACX_site6463]	PfAP2-I AP2 domain 3 (GST-tagged)	n
AAAAATAATGCACATATATATAATATGTATATGTAT [CACACA_negctrl_site443]	PfAP2-I AP2 domain 3 (GST-tagged)	y
TAATGGATTATACGTGCACACATATATACAAATAAA [CACACA_site8116]	PfAP2-I AP2 domain 3 (GST-tagged)	y
TATTCTTCAATTTAAAGTACAAAAATTACTATACTT [XGTACX_site6599]	PfAP2-I AP2 domain 3 (GST-tagged)	n
TATTTATGCACGCGTGCACACACATATGAAAAAAGG [CACACA_site9090]	PfAP2-I AP2 domain 3 (GST-tagged)	y
AAAATATAATATAATGCACACATAAAAAAAAAATCA [CACACA_site7922]	PfAP2-I AP2 domain 3 (GST-tagged)	y
AAAAACAAACTGTGCATGCACCAAAAAAAAAAAAAA	PfAP2-I AP2 domain 3 (GST-tagged)	y
ACATTAAAAAATTGTTTGCACTATATAAAATATTAA [GTGCAC_site9728]	PfAP2-I AP2 domain 3 (GST-tagged)	y
GCTAAAAGTATATGCACACACATATATATGCACATA [CACACA_site1635]	PfAP2-I AP2 domain 3 (GST-tagged)	y
AACATACATAAACACACACACACACCCACAGAGACA [CACACA_site4430]	PfAP2-I AP2 domain 3 (GST-tagged)	y
TTTATGCACGCGTGCACACACATATGAAAAAAGGTA [CACACA_site3315]	PfAP2-I AP2 domain 3 (GST-tagged)	y
